The reader will find reported inhibition at 3.2 µM values listed item by item below.
Tested on: Varicella-Zoster Virus (VZV) clinical isolate DM625
Test: VZV plaque reduction assay
Assay type: cell-based
Settings: Human alphaherpesvirus 3, 144 h; VZV in HFF; 3.2 μM
Give the quantity in %, number only.

Here are 3 molecules together with their reported answers.
Cc1cn([C@@H]2O[C@H](CO)[C@H]2CO)c(=O)[nH]c1=O
100
Nc1ccn([C@@H]2O[C@H](CO)[C@H]2CO)c(=O)n1
100
O=c1ccn([C@@H]2O[C@H](CO)[C@H]2CO)c(=O)[nH]1
22

Query: Data request, read-out inhibition at 3.2 µM, for O=c1[nH]c(=O)n([C@@H]2O[C@H](CO)[C@H]2CO)cc1I
Result: 98

Query: Also O=c1[nH]c(=O)n([C@@H]2O[C@H](CO)[C@H]2CO)cc1C=CBr ?
Result: 100

Query: Would you mind doing CC#Cc1cn([C@@H]2O[C@H](CO)[C@H]2CO)c(=O)[nH]c1=O as well?
Result: 100

Query: Field entry: O=c1[nH]c(=O)n([C@@H]2O[C@H](CO)[C@H]2CO)cc1Br
Result: 98

###

Test: MTT test compound cytotoxicity in human foreskin fibroblasts
Assay type: cell-based
Conditions: hff cells, 0.1 μM, read-out: MTT assay (Percent of control)
Test Readout: viability at 0.1 µM (%)
Number only, in %; omit the unit.

Recorded viability at 0.1 µM, per entry:
CC#Cc1cn([C@@H]2O[C@H](CO)[C@H]2CO)c(=O)[nH]c1=O
100
Cc1cn([C@@H]2O[C@H](CO)[C@H]2CO)c(=O)[nH]c1=O
93
O=c1[nH]c(=O)n([C@@H]2O[C@H](CO)[C@H]2CO)cc1C=CCl
100
O=c1[nH]c(=O)n([C@@H]2O[C@H](CO)[C@H]2CO)cc1C=CBr
92
O=c1[nH]c(=O)n([C@@H]2O[C@H](CO)[C@H]2CO)cc1C=CI
100

Query: For Nc1ccn([C@@H]2O[C@H](CO)[C@H]2CO)c(=O)n1 , what is its reported viability at 0.1 µM?
Result: 88

Query: Subsequent entry: O=c1[nH]c(=O)n([C@@H]2O[C@H](CO)[C@H]2CO)cc1Br
Result: 100

###

Assay: MTT test compound cytotoxicity in human foreskin fibroblasts
Format: cell-based
Details: hff cells, 32 μM, read-out: MTT assay (Percent of control)
A collection of compounds and their measured viability at 32 µM
Give just the numeric value; % need not be written.

Recorded viability at 32 µM, per entry:
O=c1[nH]c(=O)n([C@@H]2O[C@H](CO)[C@H]2CO)cc1I
88
O=c1[nH]c(=O)n([C@@H]2O[C@H](CO)[C@H]2CO)cc1Br
93

Now take the following compound into account.
Query: What value of viability at 32 µM has been recorded for this entry: O=c1ccn([C@@H]2O[C@H](CO)[C@H]2CO)c(=O)[nH]1
Result: 87

###

Assay: MTT drug cytotoxicity assay in MRC5 cells
Format: cell-based
Details: human, 1.0 μg/ml, read-out: MTT assay Percent of control
Test Readout: viability (%)
Note: unit % is implicit; provide only the numeric part.

Query: # viability lookup, item Nc1ccn([C@@H]2O[C@H](CO)[C@H]2CO)c(=O)n1
Result: 81

// data source = patent US5420276A
